The reported numbers originate from DBAASP.

# Tested on: Staphylococcus aureus KCTC 1621
Measured MIC, listed per entry.
The answer is to be given in µM; state only the numeric part.

CC[C@H](C)[C@H](NC(=O)[C@H](CCCN=C(N)N)NC(=O)[C@H](CCCCN)NC(=O)[C@@H](NC(=O)[C@@H](NC(=O)[C@H](CCCN=C(N)N)NC(=O)[C@@H](N)CCCCN)[C@@H](C)CC)C(C)C)C(=O)N[C@@H](CCCCN)C(=O)N[C@@H](CCCCN)C(=O)N[C@@H](Cc1c[nH]c2ccccc12)C(=O)N[C@@H](CC(C)C)C(=O)N[C@@H](CCCN=C(N)N)C(N)=O [KRIVKRIKKWLR] : 2
NC(N)=NCCC[C@H](NC(=O)[C@H](CCCN=C(N)N)NC(=O)[C@H](Cc1ccccc1)NC(=O)[C@@H]1CCCN1C(=O)[C@H](Cc1c[nH]c2ccccc12)NC(=O)[C@H](Cc1c[nH]c2ccccc12)NC(=O)[C@H](Cc1c[nH]c2ccccc12)NC(=O)[C@@H]1CCCN1C(=O)[C@H](Cc1ccccc1)NC(=O)[C@H](CCCN=C(N)N)NC(=O)[C@@H](N)CCCN=C(N)N)C(=O)O [RRFPWWWPFRR] : 2.37

Please look at the following compound next.
-- ask // fetch MIC given entry CC(C)C[C@H](NC(=O)[C@H](Cc1ccccc1)NC(=O)[C@H](CCCN=C(N)N)NC(=O)[C@H](CCCCN)NC(=O)[C@H](Cc1c[nH]c2ccccc12)NC(=O)[C@H](CCCN=C(N)N)NC(=O)[C@H](CCC(N)=O)NC(=O)[C@@H](NC(=O)[C@H](Cc1c[nH]c2ccccc12)NC(=O)[C@H](CCCN=C(N)N)NC(=O)[C@H](CCCCN)NC(=O)[C@@H](N)Cc1ccccc1)C(C)C)C(=O)N[C@@H](CCCN=C(N)N)C(N)=O [FKRWVQRWKRFLR]
-- reply 2
